Origin of the recorded values: ChEMBL document CHEMBL4346727

System: Mus musculus
measurement_protocol: Anticonvulsant activity in ip dosed CD1 mouse assessed as protection against 50 mA current-induced seizure and measured after 4 hrs by maximal electroshock seizure test
Type: functional
measurement_conditions: read-out: MED
Item-by-item account of minimal effective dose
The reply should read as a number followed by its unit.

// known answers, use as guide
CC(C)C1(C(C)C)NC(=O)N(CN2CCN(c3ccccc3)CC2)C1=O    300 mg/kg
O=C1NC(=O)C(c2ccccc2)(c2ccccc2)N1    30 mg/kg
CN1CCN(CN2C(=O)NC(c3ccccc3)(c3ccccc3)C2=O)CC1    10 mg/kg
O=C1NC(c2ccccc2)(c2ccccc2)C(=O)N1CN1CCN(c2ccc(F)cc2)CC1    100 mg/kg
O=C1NC(c2ccccc2)(c2ccccc2)C(=O)N1CN1CCN(CCc2ccccc2)CC1    30 mg/kg

Which minimal effective dose is listed for O=C1NC(c2ccccc2)(c2ccccc2)C(=O)N1CN1CCN(c2ccccc2F)CC1 ? 30 mg/kg

I would be grateful if you could share the reported minimal effective dose for CC(C)C1(C(C)C)NC(=O)N(CN2CCN(c3cccc(C(F)(F)F)c3)CC2)C1=O . 100 mg/kg

Please report the recorded minimal effective dose for O=C1NC(c2ccccc2)(c2ccccc2)C(=O)N1CN1CCN(c2cccc(Cl)c2)CC1 . 100 mg/kg

So what does the record say about minimal effective dose for CC(C)C1(C(C)C)NC(=O)N(CN2CCN(c3cccc(Cl)c3)CC2)C1=O ? 100 mg/kg

Which minimal effective dose value is on record for O=C1NC(c2ccccc2)(c2ccccc2)C(=O)N1CN1CCN(c2ccccc2)CC1 ? 100 mg/kg

###

measurement_protocol: Protection index, ratio of TD50 for neurotoxicity in po dosed Sprague-Dawley rat by rotarod test to ED50 for anticonvulsant activity in po dosed Sprague-Dawley rat by maximal electroshock seizure test
Format: toxicity, organism-based
measurement_conditions: in vivo, read-out: Ratio TD50/ED50
Listing of entries alongside the reported selectivity ratio.

CN1CCN(CN2C(=O)NC(c3ccccc3)(c3ccccc3)C2=O)CC1    > 13

Turning now to a further compound:
Requested read-out: selectivity ratio. Entry: O=C1NC(=O)C(c2ccccc2)(c2ccccc2)N1 [PHENYTOIN] > 35.6

###

The molecules listed here are annotated with their minimal effective dose.
Tested on: Mus musculus
measurement_protocol: Anticonvulsant activity in ip dosed CD1 mouse assessed as protection against 50 mA current-induced seizure and measured after 0.5 hrs by maximal electroshock seizure test
Assay type: functional
measurement_conditions: read-out: MED
Return type: number; implicit unit mg/kg.

Past entries and their recorded results:
O=C1NC(=O)C(c2ccccc2)(c2ccccc2)N1 [PHENYTOIN]    30
CC(C)C1(C(C)C)NC(=O)N(CN2CCN(c3ccccc3F)CC2)C1=O    100
CC(C)C1(C(C)C)NC(=O)N(CN2CCN(c3cccc(Cl)c3)CC2)C1=O    100
O=C1NC(c2ccccc2)(c2ccccc2)C(=O)N1CN1CCN(CCc2ccccc2)CC1    100
O=C1NC(c2ccccc2)(c2ccccc2)C(=O)N1CN1CCN(c2ccccc2)CC1    300
CN1CCN(CN2C(=O)NC(c3ccccc3)(c3ccccc3)C2=O)CC1    10
CC(C)C1(C(C)C)NC(=O)N(CN2CCN(C)CC2)C1=O    300
O=C1NC(c2ccccc2)(c2ccccc2)C(=O)N1CN1CCN(c2cccc(C(F)(F)F)c2)CC1    300

Now, please, on to the next molecule.
Query (molecule): O=C1NC(c2ccccc2)(c2ccccc2)C(=O)N1CN1CCN(Cc2ccccc2)CC1 ; field requested: minimal effective dose 300
